# Species on record: Rattus norvegicus
# Assay text: DrugMatrix - Regimen: Daily Repeat
# Type: toxicity, organism-based, Sprague-Dawley
# Parameters: regimen Daily Repeat, gender Male, age 6-8 weeks
# Condition: in vivo, po, 0 mg/kg, 72 h, tissue Plasma, route oral GAVAGE, dose level Control, time 3 day, vehicle .5 % CMC
Endpoint label: CHOLESTEROL (mg/dL)
Numbers only; they are read as mg/dL.

INSERT INTO measurements (compound, endpoint_label, reported_measurement) VALUES
  ('CN1CCC[C@@H]1CCO[C@](C)(c1ccccc1)c1ccc(Cl)cc1 [CLEMASTINE]', 'CHOLESTEROL', 70),
  ('Brc1ccccc1 [BROMOBENZENE]', 'CHOLESTEROL', 86.33),
  ('COC(=O)c1ccc(O)cc1 [METHYLPARABEN]', 'CHOLESTEROL', 77),
  ('CC(/C=C1\SC(=S)N(CC(=O)O)C1=O)=C\c1ccccc1', 'CHOLESTEROL', 70),
  ('NCC(=O)O [GLYCINE]', 'CHOLESTEROL', 64.33),
  ('CC1(C)[C@H]2CC[C@]1(C)C(=O)C2 [(-)-CAMPHOR]', 'CHOLESTEROL', 74),
  ('CCOC(=O)OC(C)OC1=C(C(=O)Nc2ccccn2)N(C)S(=O)(=O)c2ccccc21 (stereo not given) [AMPIROXICAM]', 'CHOLESTEROL', 86.33),
  ('CCC[C@@H]1C[C@@H](C(=O)N[C@@H]([C@H]2O[C@H](SC)[C@H](O)[C@@H](O)[C@H]2O)[C@@H](C)O)N(C)C1 [LINCOMYCIN]', 'CHOLESTEROL', 71.17);

Could you share which CHOLESTEROL value was measured for COc1c(C)c2c(c(O)c1C/C=C(\C)CCC(=O)OCCN1CCOCC1)C(=O)OC2 [MYCOPHENOLATE MOFETIL] ?
70

Could you share which CHOLESTEROL value was measured for O=c1[nH]cc(F)c(=O)[nH]1 [FLUOROURACIL] ?
68.17

###

# LYMPHOCYTE values compiled below
# Organism: Rattus norvegicus
# Assay text: DrugMatrix - Regimen: Daily Repeat
# Type: toxicity, organism-based, Sprague-Dawley
# Design: regimen Daily Repeat, gender Male, age 6-8 weeks
# Condition: in vivo, po, 2000 mg/kg, 72 h, tissue Blood, route oral GAVAGE, dose level High, time 3 day, vehicle .5 % CMC
Numbers only; they are read as %.

Consider the worked cases shown below.
INSERT INTO measurements (compound, endpoint_label, reported_measurement) VALUES
  ('NCC(=O)O [GLYCINE]', 'LYMPHOCYTE', 89.67),
  ('CC(C)[C@H](N)C(=O)OCCOCn1cnc2c(=O)[nH]c(N)nc21 [VALACYCLOVIR]', 'LYMPHOCYTE', 88),
  ('CC(=O)O[C@]1(C(C)=O)CC[C@H]2[C@@H]3C=C(Cl)C4=CC(=O)CC[C@]4(C)[C@H]3CC[C@@]21C [CHLORMADINONE ACETATE]', 'LYMPHOCYTE', 90.67);

Attention now turns to another entry.
Could you share which LYMPHOCYTE value was measured for NCCCC[C@H](N[C@@H](CCc1ccccc1)C(=O)O)C(=O)N1CCC[C@H]1C(=O)O [LISINOPRIL ANHYDROUS] ?
90

###

# Species on record: Rattus norvegicus
# Assay type: toxicity, organism-based, Sprague-Dawley
# Condition: in vivo, po, 40 mg/kg, 24 h, tissue Blood, route oral GAVAGE, dose level Low, time 1 day, […]
# Description: DrugMatrix - Regimen: Single
Endpoint label: ABSOLUTE EOSINOPHIL (cells/µL)
Numbers only; they are read as cells/µL.

Could you share which ABSOLUTE EOSINOPHIL value was measured for C=CCN [ALLYLAMINE] ?
160

###

# Organism: Rattus norvegicus
# Assay text: DrugMatrix - Regimen: Daily Repeat
# Assay type: toxicity, organism-based, Sprague-Dawley
# Set-up: regimen Daily Repeat, gender Male, age 6-8 weeks
# Condition: in vivo, po, 0 mg/kg, 72 h, tissue Blood, route oral GAVAGE, dose level Control, time 3 day, vehicle .5 % CMC
Endpoint label: ABSOLUTE LYMPHOCYTE (CELLS/uL)
Numbers only; they are read as CELLS/uL.

Consider the worked cases shown below.
INSERT INTO assay_data (compound, reported_measurement) VALUES
  ('CCc1ccc(C(=O)C(C)CN2CCCCC2)cc1 (stereo not drawn)', 11670.5),
  ('Cc1c(-c2ccccc2)oc2c(C(=O)OCCN3CCCCC3)cccc2c1=O [FLAVOXATE]', 13494.17),
  ('CC1(C)[C@H]2CC[C@]1(C)C(=O)C2 [(-)-CAMPHOR]', 14453),
  ('Brc1ccccc1', 10149.83),
  ('CCOC(=O)OC(C)OC1=C(C(=O)Nc2ccccn2)N(C)S(=O)(=O)c2ccccc21 (stereo not drawn)', 10149.83),
  ('C=C1CC[C@H](O)C/C1=C/C=C1\CCC[C@]2(C)[C@@H]([C@H](C)/C=C/[C@H](C)C(C)C)CC[C@@H]12', 7222.33),
  ('COc1c(C)c2c(c(O)c1C/C=C(\C)CCC(=O)OCCN1CCOCC1)C(=O)OC2 [MYCOPHENOLATE MOFETIL]', 12191.17);

Could you share which ABSOLUTE LYMPHOCYTE value was measured for O=c1[nH]cc(F)c(=O)[nH]1 ?
10030.67

###

# Species on record: Rattus norvegicus
# Assay text: DrugMatrix - Regimen: Daily Repeat
# Assay type: toxicity, organism-based, Sprague-Dawley
# Set-up: regimen Daily Repeat, gender Male, age 6-8 weeks
# Condition: in vivo, po, 80 mg/kg, 120 h, tissue Blood, route oral GAVAGE, dose level High, time 5 day, vehicle .5 % CMC
Endpoint label: ABSOLUTE SEGMENTED NEUTROPHIL

Could you share which ABSOLUTE SEGMENTED NEUTROPHIL value was measured for O=c1cc(-c2ccccc2)oc2c1ccc1ccccc12 ?
1790 cells/µL

###

# URIC ACID values compiled below
# Species on record: Rattus norvegicus
# Assay text: DrugMatrix - Regimen: Daily Repeat
# Format: toxicity, organism-based, Sprague-Dawley
# Set-up: regimen Daily Repeat, gender Male, age 6-8 weeks
# Condition: in vivo, po, 0 mg/kg, 120 h, tissue Plasma, route oral GAVAGE, dose level Control, time 5 day, vehicle 100 % WATER
Numbers only; they are read as mg/dL.

Consider the worked cases shown below.
INSERT INTO measurements (compound, readout_unit, reported_measurement) VALUES
  ('CC1(C)S[C@@H]2[C@H](NC(=O)[C@H](N)c3ccc(O)cc3)C(=O)N2[C@H]1C(=O)O', 'mg/dL', 0.97),
  ('CNCCC=C1c2ccccc2CCc2ccccc21', 'mg/dL', 1.52),
  ('COc1cccc(C2(O)CCCCC2CN(C)C)c1 (centres undefined)', 'mg/dL', 0.62),
  ('Clc1ccc(C(c2ccccc2Cl)C(Cl)Cl)cc1 (centres undefined)', 'mg/dL', 1.7),
  ('Nc1ccc(S(=O)(=O)Nc2ccnn2-c2ccccc2)cc1', 'mg/dL', 1.42),
  ('NCC1(CC(=O)O)CCCCC1', 'mg/dL', 1.17),
  ('O=C1NC(=O)C(c2ccccc2)(c2ccccc2)N1', 'mg/dL', 1.52),
  ('CC(CCc1ccccc1)NCC(O)c1ccc(O)c(C(N)=O)c1 (centres undefined)', 'mg/dL', 1.83);

Could you share which URIC ACID value was measured for Fc1ccc([C@@H]2CCNC[C@H]2COc2ccc3c(c2)OCO3)cc1 ?
0.62

Could you share which URIC ACID value was measured for Cc1cc(NS(=O)(=O)c2ccc(N)cc2)no1 ?
1.77

Could you share which URIC ACID value was measured for CC1COc2c(N3CCN(C)CC3)c(F)cc3c(=O)c(C(=O)O)cn1c23 (centres undefined) ?
2.18

Could you share which URIC ACID value was measured for COc1cc2c(N3CCN(C(=O)Nc4ccc(OC(C)C)cc4)CC3)ncnc2cc1OCCCN1CCCCC1 ?
0.0833

Could you share which URIC ACID value was measured for CN1CCN(C(=O)OC2c3nccnc3C(=O)N2c2ccc(Cl)cn2)CC1 (centres undefined) ?
0.93

Could you share which URIC ACID value was measured for C[C@]12Cc3c[nH]nc3C[C@@H]1CC[C@@H]1[C@@H]2CC[C@@]2(C)[C@H]1CC[C@]2(C)O ?
0.62

###

# Organism: Rattus norvegicus
# Assay text: DrugMatrix - Regimen: Daily Repeat
# Assay type: toxicity, organism-based, Sprague-Dawley
# Parameters: regimen Daily Repeat, gender Male, age 6-8 weeks
# Condition: in vivo, po, 0 mg/kg, 120 h, tissue Plasma, route oral GAVAGE, dose level Control, time 5 day, vehicle .5 % CMC
Endpoint label: CREATININE
Remember to put the unit after the number in your answer.

Consider the worked cases shown below.
INSERT INTO results (compound, endpoint_label, reported_measurement) VALUES
  ('CCc1cccc2c3c([nH]c12)C(CC)(CC(=O)O)OCC3 (stereo unspecified) [ETODOLAC]', 'CREATININE', '0.58 mg/dL'),
  ('CCc1ccc(C(=O)C(C)CN2CCCCC2)cc1 (stereo unspecified) [EPERISONE]', 'CREATININE', '0.21 mg/dL'),
  ('NCC(=O)O [GLYCINE]', 'CREATININE', '0.53 mg/dL');

Could you share which CREATININE value was measured for CCOC(=O)OC(C)OC1=C(C(=O)Nc2ccccn2)N(C)S(=O)(=O)c2ccccc21 (stereo unspecified) [AMPIROXICAM] ?
0.27 mg/dL
